Each recorded value in this set is attributed to ChEMBL document CHEMBL3098054.

assay: Efflux ratio of apparent permeability from basolateral to apical side over apical to basolateral side in human Caco2 cells at 10 uM after 90 mins by LC-MS/MS analysis; assay type: ADME, cell-based, Caco-2; conditions: Caco-2
Quick list: efflux ratio at 1.5 h, 10 µM per entry.
READOUT_LABEL: efflux ratio at 1.5 h, 10 µM

[[record]]
smiles_structure = "CO[C@H]1C[C@H]2OC[C@@]2(OC(C)=O)[C@H]2[C@H](OC(=O)c3ccccc3)[C@]34OC(=O)O[C@H]3[C@H](OC(=O)[C@H](O)[C@@H](NC(=O)OC(C)(C)C)c3ccccc3)C(C)=C([C@@H](OC(=O)N(C)C)C(=O)[C@]12C)C4(C)C"
numeric_readout = 2.04

[[record]]
smiles_structure = "CO[C@H]1C[C@H]2OC[C@@]2(OC(C)=O)[C@H]2[C@H](OC(=O)c3ccccc3)[C@]3(O)C[C@H](OC(=O)[C@H](O)[C@@H](NC(=O)OC(C)(C)C)c4ccccc4)C(C)=C([C@@H](OC(=O)N(C)C)C(=O)[C@]12C)C3(C)C"
numeric_readout = 4.08

[[record]]
smiles_structure = "CO[C@H]1C(=O)[C@]2(C)[C@@H](OC(=O)N(C)C)C[C@H]3OC[C@@]3(OC(C)=O)[C@H]2[C@H](OC(=O)c2ccccc2)[C@]23OC(=O)O[C@H]2[C@H](OC(=O)[C@H](O)[C@H](CC(C)C)NC(=O)OC(C)(C)C)C(C)=C1C3(C)C"
numeric_readout = 2.39

[[record]]
smiles_structure = "CO[C@H]1C(=O)[C@]2(C)CC[C@H]3OC[C@@]3(OC(C)=O)[C@H]2[C@H](OC(=O)c2ccccc2)[C@]2(O)C[C@H](OC(=O)[C@H](O)[C@H](CC(C)C)NC(=O)OC(C)(C)C)C(C)=C1C2(C)C"
numeric_readout = 5.12

[[record]]
smiles_structure = "COC(=O)O[C@H]1C(=O)[C@]2(C)[C@@H](OC)C[C@H]3OC[C@@]3(OC(C)=O)[C@H]2[C@H](OC(=O)c2ccccc2)[C@]2(O)C[C@H](OC(=O)[C@H](O)[C@@H](NC(=O)OC(C)(C)C)c3ccccc3)C(C)=C1C2(C)C"
numeric_readout = 4.22

[[record]]
smiles_structure = "CO[C@H]1C(=O)[C@]2(C)CC[C@H]3OC[C@@]3(OC(C)=O)[C@H]2[C@H](OC(=O)c2ccccc2)[C@]23OC(=O)O[C@H]2[C@H](OC(=O)[C@H](O)[C@@H](NC(=O)OC(C)(C)C)c2ccccc2)C(C)=C1C3(C)C"
numeric_readout = 9.56

[[record]]
smiles_structure = "COC(=O)O[C@H]1C[C@H]2OC[C@@]2(OC(C)=O)[C@H]2[C@H](OC(=O)c3ccccc3)[C@]34OC(=O)O[C@H]3[C@H](OC(=O)[C@H](O)[C@H](CC(C)C)NC(=O)OC(C)(C)C)C(C)=C([C@@H](OC)C(=O)[C@]12C)C4(C)C"
numeric_readout = 7.81

[[record]]
smiles_structure = "CO[C@H]1C(=O)[C@@]2(C)[C@H]([C@H](OC(=O)c3ccccc3)[C@]34OC(=O)O[C@H]3[C@H](OC(=O)[C@H](O)[C@@H](NC(=O)OC(C)(C)C)c3ccccc3)C(C)=C1C4(C)C)[C@]1(OC(C)=O)CO[C@@H]1C[C@@H]2O"
numeric_readout = 51


----------
assay: Apparent permeability from basolateral to apical side in human Caco2 cells at 10 uM after 90 mins by LC-MS/MS analysis; type: ADME, cell-based, Caco-2; conditions: Caco-2
READOUT_LABEL: Papp B→A at 1.5 h, 10 µM (×10⁻⁶ cm/s)

[[record]]
smiles_structure = "CO[C@H]1C[C@H]2OC[C@@]2(OC(C)=O)[C@H]2[C@H](OC(=O)c3ccccc3)[C@]3(O)C[C@H](OC(=O)[C@H](O)[C@H](CC(C)C)NC(=O)OC(C)(C)C)C(C)=C([C@@H](OC(=O)N(C)C)C(=O)[C@]12C)C3(C)C"
unit_label = "×10⁻⁶ cm/s"
numeric_readout = 32.6

[[record]]
smiles_structure = "COC(=O)O[C@H]1C(=O)[C@]2(C)[C@@H](OC)C[C@H]3OC[C@@]3(OC(C)=O)[C@H]2[C@H](OC(=O)c2ccccc2)[C@]2(O)C[C@H](OC(=O)[C@H](O)[C@@H](NC(=O)OC(C)(C)C)c3ccccc3)C(C)=C1C2(C)C"
unit_label = "×10⁻⁶ cm/s"
numeric_readout = 29.2

[[record]]
smiles_structure = "CO[C@H]1C(=O)[C@]2(C)[C@@H](OC(=O)N(C)C)C[C@H]3OC[C@@]3(OC(C)=O)[C@H]2[C@H](OC(=O)c2ccccc2)[C@]23OC(=O)O[C@H]2[C@H](OC(=O)[C@H](O)[C@H](CC(C)C)NC(=O)OC(C)(C)C)C(C)=C1C3(C)C"
unit_label = "×10⁻⁶ cm/s"
numeric_readout = 5.74

[[record]]
smiles_structure = "CO[C@H]1C(=O)[C@]2(C)[C@@H](OC)C[C@H]3OC[C@@]3(OC(C)=O)[C@H]2[C@H](OC(=O)c2ccccc2)[C@]23OC(=O)O[C@H]2[C@H](OC(=O)[C@H](O)[C@@H](NC(=O)OC(C)(C)C)c2ccccc2)C(C)=C1C3(C)C"
unit_label = "×10⁻⁶ cm/s"
numeric_readout = 18.2


----------
assay: Apparent permeability from apical to basolateral side in wild-type MDCK cells at 5 uM after 90 mins; format: ADME, cell-based, Canis lupus familiaris; details: dog
Quick list: Papp A→B at 1.5 h, 5 µM per entry.
READOUT_LABEL: Papp A→B at 1.5 h, 5 µM (×10⁻⁶ cm/s)

[[record]]
compound = "CO[C@H]1C(=O)[C@]2(C)[C@@H](OC(=O)N(C)C)C[C@H]3OC[C@@]3(OC(C)=O)[C@H]2[C@H](OC(=O)c2ccccc2)[C@]2(O)C[C@H](OC(=O)[C@H](O)[C@@H](NC(=O)OC(C)(C)C)c3ccccc3)C(C)=C1C2(C)C"
unit_label = "×10⁻⁶ cm/s"
numeric_readout = 1.39

[[record]]
compound = "CO[C@H]1C[C@H]2OC[C@@]2(OC(C)=O)[C@H]2[C@H](OC(=O)c3ccccc3)[C@]34OC(=O)O[C@H]3[C@H](OC(=O)[C@H](O)[C@@H](NC(=O)OC(C)(C)C)c3ccccc3)C(C)=C([C@@H](OC(=O)N(C)C)C(=O)[C@]12C)C4(C)C"
unit_label = "×10⁻⁶ cm/s"
numeric_readout = 1.4

[[record]]
compound = "C[C@H]1O[C@@H](O[C@H]2[C@@H](O)C[C@H](O[C@H]3[C@@H](O)C[C@H](O[C@H]4CC[C@@]5(C)[C@H](CC[C@@H]6[C@@H]5C[C@@H](O)[C@]5(C)[C@@H](C7=CC(=O)OC7)CC[C@]65O)C4)O[C@@H]3C)O[C@@H]2C)C[C@H](O)[C@@H]1O [DIGOXIN]"
unit_label = "×10⁻⁶ cm/s"
numeric_readout = 0.35

[[record]]
compound = "CC(=O)O[C@H]1C(=O)[C@@]2(C)[C@H]([C@H](OC(=O)c3ccccc3)[C@]3(O)C[C@H](OC(=O)[C@H](O)[C@@H](NC(=O)c4ccccc4)c4ccccc4)C(C)=C1C3(C)C)[C@]1(OC(C)=O)CO[C@@H]1C[C@@H]2O [PACLITAXEL]"
unit_label = "×10⁻⁶ cm/s"
numeric_readout = 0.09


----------
Quick list: Papp A→B at 1.5 h, 10 µM per entry.
assay: Apparent permeability from apical to basolateral side in human Caco2 cells at 10 uM after 90 mins by LC-MS/MS analysis; type: ADME, cell-based, Caco-2; conditions: Caco-2
READOUT_LABEL: Papp A→B at 1.5 h, 10 µM (×10⁻⁶ cm/s)

[[record]]
smiles_structure = "COC(=O)O[C@H]1C[C@H]2OC[C@@]2(OC(C)=O)[C@H]2[C@H](OC(=O)c3ccccc3)[C@]3(O)C[C@H](OC(=O)[C@H](O)[C@@H](NC(=O)OC(C)(C)C)c4ccccc4)C(C)=C([C@@H](OC)C(=O)[C@]12C)C3(C)C"
numeric_readout = 6.97

[[record]]
smiles_structure = "CO[C@H]1C[C@H]2OC[C@@]2(OC(C)=O)[C@H]2[C@H](OC(=O)c3ccccc3)[C@]34OC(=O)O[C@H]3[C@H](OC(=O)[C@H](O)[C@H](CC(C)C)NC(=O)OC(C)(C)C)C(C)=C([C@@H](OC(=O)N(C)C)C(=O)[C@]12C)C4(C)C"
numeric_readout = 1.07

[[record]]
smiles_structure = "CO[C@H]1C(=O)[C@]2(C)CC[C@H]3OC[C@@]3(OC(C)=O)[C@H]2[C@H](OC(=O)c2ccccc2)[C@]2(O)C[C@H](OC(=O)[C@H](O)[C@H](CC(C)C)NC(=O)OC(C)(C)C)C(C)=C1C2(C)C"
numeric_readout = 7.17

[[record]]
smiles_structure = "CO[C@H]1C(=O)[C@]2(C)CC[C@H]3OC[C@@]3(OC(C)=O)[C@H]2[C@H](OC(=O)c2ccccc2)[C@]2(O)C[C@H](OC(=O)[C@H](O)[C@@H](NC(=O)OC(C)(C)C)c3ccccc3)C(C)=C1C2(C)C"
numeric_readout = 3.64

[[record]]
smiles_structure = "COC(=O)O[C@H]1C[C@H]2OC[C@@]2(OC(C)=O)[C@H]2[C@H](OC(=O)c3ccccc3)[C@]34OC(=O)O[C@H]3[C@H](OC(=O)[C@H](O)[C@H](CC(C)C)NC(=O)OC(C)(C)C)C(C)=C([C@@H](OC)C(=O)[C@]12C)C4(C)C"
numeric_readout = 0.92

[[record]]
smiles_structure = "CO[C@H]1C(=O)[C@]2(C)[C@@H](OC(=O)N(C)C)C[C@H]3OC[C@@]3(OC(C)=O)[C@H]2[C@H](OC(=O)c2ccccc2)[C@]2(O)C[C@H](OC(=O)[C@H](O)[C@@H](NC(=O)c3ccccc3)c3ccccc3)C(C)=C1C2(C)C"
numeric_readout = 3.27

[[record]]
smiles_structure = "COC(=O)O[C@H]1C[C@H]2OC[C@@]2(OC(C)=O)[C@H]2[C@H](OC(=O)c3ccccc3)[C@]3(O)C[C@H](OC(=O)[C@H](O)[C@@H](NC(=O)OC(C)(C)C)c4ccccn4)C(C)=C([C@@H](OC)C(=O)[C@]12C)C3(C)C"
numeric_readout = 4.53

[[record]]
smiles_structure = "CC(=O)O[C@H]1C(=O)[C@@]2(C)[C@H]([C@H](OC(=O)c3ccccc3)[C@]3(O)C[C@H](OC(=O)[C@H](O)[C@@H](NC(=O)c4ccccc4)c4ccccc4)C(C)=C1C3(C)C)[C@]1(OC(C)=O)CO[C@@H]1C[C@@H]2O"
numeric_readout = 0.97

